The measurements presented in this section are drawn from PubChem BioAssay (NCI).

- Test system: PC-3 prostate
- test: NCI tumour cell line growth inhibition, 48 h

| compound | TGI |
| --- | --- |
| COc1ccc(P2(=S)SP(=S)(c3ccc(Cl)cc3)S2)cc1 (stereo not drawn) | > 100 µM |
| Cc1ccc(C2SCC(=O)N2c2ccc(-c3ccc(-n4c(-c5ccccc5)nc5ccccc5c4=O)cc3)cc2)cc1 (stereo not drawn) | > 100 µM |
| O=C(NNCC(F)(F)F)c1ccncc1 | > 100 µM |

====

- System: UACC-257 melanoma
- test: NCI tumour cell line growth inhibition, 48 h

| molecule | tested.system | TGI |
| --- | --- | --- |
| NC(=S)N/N=C/c1ccc(N)cn1 | UACC-257 melanoma | > 10 µM |
| Nc1ccccc1NC(=O)c1ccc(CN2CCC/C(=C\c3ccccn3)C2=O)cc1 | UACC-257 melanoma | 14.8 µM |
| Nn1c(CCCCCCCCc2nnc(COc3ccccc3)n2N)nnc1COc1ccccc1 | UACC-257 melanoma | > 100 µM |
| CCOC(=O)NC(C(=O)OCC)(N1CCN(c2cc3c(cc2F)c(=O)c(C(=O)O)cn3CC)CC1)C(F)(F)F (configuration not stated) | UACC-257 melanoma | > 100 µM |
| Cc1ccc(S(=O)(=O)N2c3ccccc3[C@H]3CCC=C[C@H]32)cc1 | UACC-257 melanoma | > 95.4 µM |
| COC(=O)C1(C(=O)OC)N=C(C)OC1c1ccccn1 (configuration not stated) | UACC-257 melanoma | > 100 µM |
| N#Cc1ccsc1NC(=O)COC(=O)c1cccc(S(=O)(=O)N2CCc3ccccc32)c1 | UACC-257 melanoma | > 100 µM |
| O=C1C=CC(=Nc2ccccc2)c2ccccc21 | UACC-257 melanoma | 8.39 µM |
| CCN(Cc1ccccc1Cl)c1ccc(CO)c(Cl)c1 | UACC-257 melanoma | 0.461 µM |
| COc1cc(/C=C/c2nc(N)nnc2C)cc(OC)c1OC | UACC-257 melanoma | > 59.8 µM |
| Cc1cc2oc(-c3ccccc3)c(C)c(=O)c2c2c1OC(C)(C)S2 | UACC-257 melanoma | > 100 µM |
| CCOC(=O)c1ccc2c(c1)nc(/C=C/c1ccc(Cl)cc1)n2-c1cc(C(C)(C)C)[nH]n1 | UACC-257 melanoma | > 100 µM |
| CCC12CCCNC1c1c(n(C)c3ccccc13)C(C(=O)OC)C2 (configuration not stated) | UACC-257 melanoma | 255 µM |
| CC(=O)C=NCC(=O)O | UACC-257 melanoma | > 100 µM |
| CCOC(=O)/C(N=Nc1ccc(-n2c(C)nc3ccc(Br)cc3c2=O)cc1)=C(/C)O | UACC-257 melanoma | > 100 µM |
| O=c1c(C2=NCCC2)c(-c2ccc[nH]2)[nH]n1-c1ccccc1 | UACC-257 melanoma | > 100 µM |
| CCCCc1ccc(-n2sc3ncc([N+](=O)[O-])cc3c2=O)cc1 | UACC-257 melanoma | 50.9 µM |

====

- Tested on: HOP-92 NSCLC
- test: NCI tumour cell line growth inhibition, 48 h

| molecule | TGI |
| --- | --- |
| COC(=O)C(CC(C)=O)CS(=O)(=O)CC(=O)C(=O)Nc1cccc([N+](=O)[O-])c1 (stereo not drawn) | > 100 µM |
| O=C(Nc1nc(C23CC4CC(CC(C4)C2)C3)cs1)c1cc2cc(Cl)ccc2oc1=O | > 100 µM |
| C[N+](C)(CCCCCC[N+](C)(C)CCCN1C(=O)c2cc3ccccc3cc2C1=O)CCCN1C(=O)c2cc3ccccc3cc2C1=O | > 37.5 µM |
